The reported numbers originate from PubChem BioAssay (NCATS).

- Test: qHTS profiling of the MIPE4 collection as inhibitors of Plasmodium falciparum (HB3) proliferation (AID 743347);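 further: plate controls were DMSO vehicle wells for no effect and artemisinin wells for full effect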
- Recorded Conditions: P. falciparum HB3 in erythrocytes, SYBR Green DNA, 72 h; at 28.5 µM (top of the series) unless noted
A collection of compounds and their measured growth, % of control

[
  {
    "Chemical Smiles": "CC(C)c1ccccc1Cc1cc(C(=O)Nc2ccc(S(=O)(=O)c3ccccc3C(C)(C)C)cc2)c(O)c(O)c1O",
    "U": "%",
    "growth, % of control": 7.71
  },
  {
    "Chemical Smiles": "CC=CC1=C(C(=O)O)N2C(=O)[C@H](NC(=O)[C@H](N)c3ccc(O)cc3)[C@@H]2SC1",
    "U": "%",
    "growth, % of control": 88
  },
  {
    "Chemical Smiles": "Nc1ccccc1NC(=O)c1ccc(CNc2nccc(-c3cccnc3)n2)cc1",
    "U": "%",
    "growth, % of control": 2.52
  },
  {
    "Chemical Smiles": "C[C@@]12O[C@@H](C[C@]1(O)CO)n1c3ccccc3c3c4c(c5c6ccccc6n2c5c31)CNC4=O",
    "U": "%",
    "growth, % of control": 9.72
  }
]
